- method: Pharmacokinetic study in rats (plasma LC-MS/MS) after iv or oral VOC, oral VOC-P188 or oral VOC-β-CD
- Format: in vivo, Sprague Dawley rats
- experimentalSetup: male, Sprague-Dawley, rat, plasma, po, VOC-β-CD inclusion compound po, rat plasma, n = 6; read-out: MRT0-t
Threshold check on MRT last: strictly below 7 h is criterion met; on or above 7 h is criterion not met.

compound | answerLabel
CCC/C=C1\OC(=O)c2ccccc21 | criterion not met
CCCC[C@@H]1OC(=O)c2ccccc21 [NBP, N-butylphthalide, reference compound] | criterion met
CCCCC1OC(=O)C2=C1CCC=C2 (centres unmarked) [SA, senkyunolide A] | criterion met
CCCC[C@@H]1OC(=O)C2=CCCC[C@H]21 [NOL, Neocnidilide] | criterion not met
CCC/C=C1\OC(=O)C2=C1CCC=C2 [ZL, Z-ligustilide] | criterion not met

---

The following compounds are listed with their measured half-life values.
- method: Pharmacokinetic study in rats (plasma LC-MS/MS) after iv or oral VOC, oral VOC-P188 or oral VOC-β-CD
- Format: in vivo, Sprague Dawley rats
- experimentalSetup: male, Sprague-Dawley, rat, plasma, po, VOC-β-CD inclusion compound po, rat plasma, n = 6; read-out: t1/2β (converted)

compound | half-life (h)
CCCCC1OC(=O)C2=C1CCC=C2 (centres unmarked) [SA, senkyunolide A] | 2.98
CCC/C=C1\OC(=O)c2ccccc21 | 19.6
CCC/C=C1\OC(=O)C2=C1CCC=C2 [ZL, Z-ligustilide] | 5.96
CCCC[C@@H]1OC(=O)C2=CCCC[C@H]21 [NOL, Neocnidilide] | 9.77
CCCC[C@@H]1OC(=O)c2ccccc21 [NBP, N-butylphthalide, reference compound] | 4.39

---

- method: Pharmacokinetic study in rats (plasma LC-MS/MS) after iv or oral VOC, oral VOC-P188 or oral VOC-β-CD
- Format: in vivo, Sprague Dawley rats
- experimentalSetup: male, Sprague-Dawley, rat, plasma, po, VOC-P188 solid dispersion po, rat plasma, n = 6

compound | endpointUnit | Cmax
CCCCC1OC(=O)C2=C1CCC=C2 (centres unmarked) [SA, senkyunolide A] | ng/mL | 701
CCC/C=C1\OC(=O)C2=C1CCC=C2 [ZL, Z-ligustilide] | ng/mL | 320
CCC/C=C1\OC(=O)c2ccccc21 | ng/mL | 40.3
CCCC[C@@H]1OC(=O)c2ccccc21 [NBP, N-butylphthalide, reference compound] | ng/mL | 23.5
CCCC[C@@H]1OC(=O)C2=CCCC[C@H]21 [NOL, Neocnidilide] | ng/mL | 244

---

- method: Pharmacokinetic study in rats (plasma LC-MS/MS) after iv or oral VOC, oral VOC-P188 or oral VOC-β-CD
- Assay type: in vivo, Sprague Dawley rats
- experimentalSetup: male, Sprague-Dawley, rat, plasma, po, 120 mg/kg, VOC po 120 mg/kg, rat plasma, n = 6
Lab note: compare AUC(0-t) against 400 ng·h/mL. Equal or greater, write Yes. Smaller, write No.

molecule | answerLabel
CCCCC1OC(=O)C2=C1CCC=C2 (centres unmarked) [SA, senkyunolide A] | Yes
CCC/C=C1\OC(=O)c2ccccc21 [BP] | No
CCC/C=C1\OC(=O)C2=C1CCC=C2 [ZL, Z-ligustilide] | Yes
CCCC[C@@H]1OC(=O)C2=CCCC[C@H]21 [NOL, Neocnidilide] | Yes
CCCC[C@@H]1OC(=O)c2ccccc21 [NBP, N-butylphthalide, reference compound] | No

---

- method: Pharmacokinetic study in rats (plasma LC-MS/MS) after iv or oral VOC, oral VOC-P188 or oral VOC-β-CD
- Format: in vivo, Sprague Dawley rats
- experimentalSetup: male, Sprague-Dawley, rat, plasma, po, VOC-β-CD inclusion compound po, rat plasma, n = 6

compound | Cmax
CCCC[C@@H]1OC(=O)C2=CCCC[C@H]21 [NOL, Neocnidilide] | 134 ng/mL
CCCCC1OC(=O)C2=C1CCC=C2 (centres unmarked) [SA, senkyunolide A] | 399 ng/mL
CCCC[C@@H]1OC(=O)c2ccccc21 [NBP, N-butylphthalide, reference compound] | 22.4 ng/mL
CCC/C=C1\OC(=O)C2=C1CCC=C2 [ZL, Z-ligustilide] | 145 ng/mL
CCC/C=C1\OC(=O)c2ccccc21 [BP] | 38.8 ng/mL

---

- method: Pharmacokinetic study in rats (plasma LC-MS/MS) after iv or oral VOC, oral VOC-P188 or oral VOC-β-CD
- Type: in vivo, Sprague Dawley rats
- experimentalSetup: male, Sprague-Dawley, rat, plasma, po, VOC-P188 solid dispersion po, rat plasma, n = 6; read-out: MRT0-t

molecule | endpointUnit | MRT last
CCCC[C@@H]1OC(=O)c2ccccc21 [NBP, N-butylphthalide, reference compound] | h | 4.07
CCCCC1OC(=O)C2=C1CCC=C2 (centres unmarked) [SA, senkyunolide A] | h | 6.45
CCC/C=C1\OC(=O)c2ccccc21 | h | 7.42
CCC/C=C1\OC(=O)C2=C1CCC=C2 [ZL, Z-ligustilide] | h | 5.95
CCCC[C@@H]1OC(=O)C2=CCCC[C@H]21 [NOL, Neocnidilide] | h | 7.61

---

- method: Pharmacokinetic study in rats (plasma LC-MS/MS) after iv or oral VOC, oral VOC-P188 or oral VOC-β-CD
- Format: in vivo, Sprague Dawley rats
- experimentalSetup: VOC-P188 solid dispersion po, rat plasma, n = 6

compound | endpointUnit | t1/2α
CCCCC1OC(=O)C2=C1CCC=C2 (centres unmarked) [SA, senkyunolide A] | h | 1.50
CCC/C=C1\OC(=O)c2ccccc21 | h | 2.72

---

- method: Pharmacokinetic study in rats (plasma LC-MS/MS) after iv or oral VOC, oral VOC-P188 or oral VOC-β-CD
- Type: in vivo, Sprague Dawley rats
- experimentalSetup: male, Sprague-Dawley, rat, plasma, iv, 30 mg/kg, VOC iv 30 mg/kg, rat plasma, n = 6
- Method: The intravenous injection solution was prepared by dissolving 0.15 g of VOC in 25 ml water containing 3 ml 10% Tween-80 as solubilizer. […] The plasma SA, NBP, NOL, ZL and BP concentrations were evaluated using the equation from the standard curves that were run with each batch of samples. The plasma concentration-time data were analyzed with the Drug and Statistics 2.0 software package to determine the pharmacokinetic parameters. […]
Documented AUC(0-t) across a set of compounds
measurementLabel: AUC(0-t) (ng·h/mL)

compound | endpointUnit | resultValue
CCCC[C@@H]1OC(=O)C2=CCCC[C@H]21 [NOL, Neocnidilide] | ng·h/mL | 505
CCCCC1OC(=O)C2=C1CCC=C2 (centres unmarked) [SA, senkyunolide A] | ng·h/mL | 1370
CCCC[C@@H]1OC(=O)c2ccccc21 [NBP, N-butylphthalide, reference compound] | ng·h/mL | 54.6
CCC/C=C1\OC(=O)C2=C1CCC=C2 [ZL, Z-ligustilide] | ng·h/mL | 1240
CCC/C=C1\OC(=O)c2ccccc21 | ng·h/mL | 198

---

- method: Pharmacokinetic study in rats (plasma LC-MS/MS) after iv or oral VOC, oral VOC-P188 or oral VOC-β-CD
- Assay type: in vivo, Sprague Dawley rats
- experimentalSetup: male, Sprague-Dawley, rat, plasma, iv, 30 mg/kg, VOC iv (tail vein) 30 mg/kg, rat plasma, n = 6
Respond with 1 for Cmax values of 400 ng/mL and above, 0 for values below.

compound | answerLabel
CCCC[C@@H]1OC(=O)C2=CCCC[C@H]21 [NOL, Neocnidilide] | 1
CCC/C=C1\OC(=O)c2ccccc21 | 0
CCC/C=C1\OC(=O)C2=C1CCC=C2 [ZL, Z-ligustilide] | 1
CCCC[C@@H]1OC(=O)c2ccccc21 [NBP, N-butylphthalide, reference compound] | 0
CCCCC1OC(=O)C2=C1CCC=C2 (centres unmarked) [SA, senkyunolide A] | 1

---

- method: Pharmacokinetic study in rats (plasma LC-MS/MS) after iv or oral VOC, oral VOC-P188 or oral VOC-β-CD
- Type: in vivo, Sprague Dawley rats
- experimentalSetup: male, Sprague-Dawley, rat, plasma, po, VOC-β-CD inclusion compound po, rat plasma, n = 6; read-out: Tmax
- Method: The intravenous injection solution was prepared by dissolving 0.15 g of VOC in 25 ml water containing 3 ml 10% Tween-80 as solubilizer. […] The plasma SA, NBP, NOL, ZL and BP concentrations were evaluated using the equation from the standard curves that were run with each batch of samples. The plasma concentration-time data were analyzed with the Drug and Statistics 2.0 software package to determine the pharmacokinetic parameters. […]

compound | Tmax [min]
CCCC[C@@H]1OC(=O)c2ccccc21 [NBP, N-butylphthalide, reference compound] | 49.8
CCCCC1OC(=O)C2=C1CCC=C2 (centres unmarked) [SA, senkyunolide A] | 30
CCCC[C@@H]1OC(=O)C2=CCCC[C@H]21 [NOL, Neocnidilide] | 40.2
CCC/C=C1\OC(=O)c2ccccc21 | 21
CCC/C=C1\OC(=O)C2=C1CCC=C2 [ZL, Z-ligustilide] | 24
